B1: 6NMW (parent)
chain: QGDIVVALYPYDGIHPDDLSFKKGEKMKVLEEHGEWWKAKSLLTKKEGFIPSNYVAKLN

variants of: B1; assay: folding stability dG (cDNA display proteolysis); higher = more stable; details: PBS, room temperature

MUTATION DESCRIPTOR: I14M
U: kcal/mol
folding stability dG: 3.36
--
MUTATION DESCRIPTOR: S41G
U: kcal/mol
folding stability dG: -0.006
--
MUTATION DESCRIPTOR: L58V
U: kcal/mol
folding stability dG: 3.89
--
MUTATION DESCRIPTOR: G24M
U: kcal/mol
folding stability dG: 1.07
--
MUTATION DESCRIPTOR: I14N
U: kcal/mol
folding stability dG: 3.02
--
MUTATION DESCRIPTOR: H33T
U: kcal/mol
folding stability dG: 3.12
--
MUTATION DESCRIPTOR: K26D
U: kcal/mol
folding stability dG: 0.255
--
MUTATION DESCRIPTOR: A7C
U: kcal/mol
folding stability dG: 1.42
--
MUTATION DESCRIPTOR: L30E
U: kcal/mol
folding stability dG: 1.21
--
MUTATION DESCRIPTOR: L42P
U: kcal/mol
folding stability dG: -0.897
--
MUTATION DESCRIPTOR: K38N
U: kcal/mol
folding stability dG: 1.45
--
MUTATION DESCRIPTOR: N59K
U: kcal/mol
folding stability dG: 3.53
--
MUTATION DESCRIPTOR: Q1C
U: kcal/mol
folding stability dG: 4.65
--
MUTATION DESCRIPTOR: Y54M
U: kcal/mol
folding stability dG: 3.17
--
MUTATION DESCRIPTOR: P10C
U: kcal/mol
folding stability dG: 3.89
--
MUTATION DESCRIPTOR: D3G
U: kcal/mol
folding stability dG: 3.47
--
MUTATION DESCRIPTOR: T44C
U: kcal/mol
folding stability dG: 0.909
--
MUTATION DESCRIPTOR: N59R
U: kcal/mol
folding stability dG: 3.22
--
MUTATION DESCRIPTOR: K23W
U: kcal/mol
folding stability dG: 2.06
--
MUTATION DESCRIPTOR: Q1P
U: kcal/mol
folding stability dG: 3.96
--
MUTATION DESCRIPTOR: K22E
U: kcal/mol
folding stability dG: 3.06
--
MUTATION DESCRIPTOR: D17S
U: kcal/mol
folding stability dG: 3.63
--
MUTATION DESCRIPTOR: K38E
U: kcal/mol
folding stability dG: 1.49
--
MUTATION DESCRIPTOR: G2S
U: kcal/mol
folding stability dG: 3.54
--
MUTATION DESCRIPTOR: E31G
U: kcal/mol
folding stability dG: 2.77
--
MUTATION DESCRIPTOR: K38F
U: kcal/mol
folding stability dG: 4.92
--
MUTATION DESCRIPTOR: S52L
U: kcal/mol
folding stability dG: 2
--
MUTATION DESCRIPTOR: K23F
U: kcal/mol
folding stability dG: 2.42
--
MUTATION DESCRIPTOR: D12C
U: kcal/mol
folding stability dG: 4.27
--
MUTATION DESCRIPTOR: K57M
U: kcal/mol
folding stability dG: 2.85
--
MUTATION DESCRIPTOR: L58Q
U: kcal/mol
folding stability dG: 2.38
--
MUTATION DESCRIPTOR: Q1M
U: kcal/mol
folding stability dG: 3.74
--
MUTATION DESCRIPTOR: K38Q
U: kcal/mol
folding stability dG: 2.39
--
MUTATION DESCRIPTOR: I4N
U: kcal/mol
folding stability dG: 0.755
--
MUTATION DESCRIPTOR: F49D
U: kcal/mol
folding stability dG: 1.19
--
MUTATION DESCRIPTOR: L43Y
U: kcal/mol
folding stability dG: 3.26
--
MUTATION DESCRIPTOR: G34Y
U: kcal/mol
folding stability dG: 1.45
--
MUTATION DESCRIPTOR: P10E
U: kcal/mol
folding stability dG: 3.31
--
MUTATION DESCRIPTOR: L43E
U: kcal/mol
folding stability dG: 3.22
--
MUTATION DESCRIPTOR: K46H
U: kcal/mol
folding stability dG: 2.64
--
MUTATION DESCRIPTOR: A56P
U: kcal/mol
folding stability dG: 0.083
--
MUTATION DESCRIPTOR: K26C
U: kcal/mol
folding stability dG: 4.34
--
MUTATION DESCRIPTOR: V29A
U: kcal/mol
folding stability dG: 0.496
--
MUTATION DESCRIPTOR: G13M
U: kcal/mol
folding stability dG: 1.91
--
MUTATION DESCRIPTOR: E35I
U: kcal/mol
folding stability dG: 3.97
--
MUTATION DESCRIPTOR: E25Q
U: kcal/mol
folding stability dG: 0.918
